All values here come from patent US20210047278A1.

- TESTED_SYSTEM: FBW7^ARG (RLFBW7) alone (Homo sapiens, UniProt Q969H0, R505L)
- Construct: GST (TEV site and flexible linker) (N, cleaved yes); made in house; host or cells: SF9 insect cells (baculovirus)
- ASSAY_COMMENT: Counterscreen 1 ALPHAscreen with FBW7^ARG alone (CSRUN1/DCSRUN1)
- Type: binding
- STATED_CONDITIONS: dose-response counterscreen, read-out: RLFBW7 ACT DCSRUN1 Final EC50
pEC50: −log10 of the molar value.
PROPERTY: pEC50

1) CC(C)(C)OC(=O)N/N=C\c1cccs1 [SR-01000110457-1] : < 4.19
2) Cc1ccnc(N2CCC(C(=O)Nc3ccccc3Br)CC2)n1 [SR-01000330228-1] : < 4.19
3) COc1cc(-c2ccnc(N)n2)ccc1NC(=O)[C@H]1COc2ccccc2O1.O=C(O)C(F)(F)F [SR-00000003239-1] : < 4.19
4) COc1ccccc1N1C(=O)c2ccc(C(=O)Nc3cc([N+](=O)[O-])ccc3O)cc2C1=O [SR-01000236956-1] : < 4.19
5) CC(C)[C@@H](CO)Nc1ccc2ncc(-c3cccc(Cl)c3)n2n1 [SR-01000383396-1] : < 4.19
6) Cn1nc(CC(=O)Nc2ccc(F)c(Cl)c2)c2ccccc2c1=O [SR-01000589827-1] : < 4.07
7) COc1ccccc1C1C(C(=O)OC2CCCC2)=C(C)NC2=C1C(=O)CC(c1ccccc1)C2 (centres unmarked) [SR-01000422836-1] : < 4.34
8) CCC(c1nnnn1CCC(C)C)N1CCN(C(=O)c2ccco2)CC1 (centres unmarked) [SR-01000340422-1] : < 4.19

----------
- TESTED_SYSTEM: FBW7^ARG+pCycE (Homo sapiens, UniProt Q969H0, R505L)
- Construct: GST (TEV site and flexible linker) (N, cleaved yes); made in house; host or cells: SF9 insect cells (baculovirus)
- Sequence (Q969H0 64-707 R505L): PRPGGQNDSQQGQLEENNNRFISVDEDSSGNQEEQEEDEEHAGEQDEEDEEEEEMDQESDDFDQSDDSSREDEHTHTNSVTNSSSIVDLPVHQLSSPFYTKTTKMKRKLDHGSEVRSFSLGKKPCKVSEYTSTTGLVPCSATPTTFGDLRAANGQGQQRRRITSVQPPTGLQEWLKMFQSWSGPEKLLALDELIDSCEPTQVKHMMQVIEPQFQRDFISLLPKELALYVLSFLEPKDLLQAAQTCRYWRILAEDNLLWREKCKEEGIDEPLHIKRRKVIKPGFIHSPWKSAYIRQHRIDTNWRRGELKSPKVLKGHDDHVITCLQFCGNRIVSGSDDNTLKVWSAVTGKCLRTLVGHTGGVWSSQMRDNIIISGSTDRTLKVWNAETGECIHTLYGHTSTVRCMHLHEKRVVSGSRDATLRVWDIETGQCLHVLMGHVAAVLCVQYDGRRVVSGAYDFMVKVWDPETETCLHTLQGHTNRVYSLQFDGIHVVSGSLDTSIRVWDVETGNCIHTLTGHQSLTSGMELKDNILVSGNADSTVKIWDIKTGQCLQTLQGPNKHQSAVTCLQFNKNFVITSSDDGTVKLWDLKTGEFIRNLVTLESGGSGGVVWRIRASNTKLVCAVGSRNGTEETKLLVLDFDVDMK
- Sequence (P63208 2-163 partner): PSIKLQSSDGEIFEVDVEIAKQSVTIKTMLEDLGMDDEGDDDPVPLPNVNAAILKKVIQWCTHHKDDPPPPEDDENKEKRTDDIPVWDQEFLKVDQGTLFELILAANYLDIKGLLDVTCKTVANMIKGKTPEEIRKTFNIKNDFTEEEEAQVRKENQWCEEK
- ASSAY_COMMENT: FBW7^ARG-cyclin E agonist ALPHAscreen (primary PRUN, confirmation CRUN1, dose-response DRUN)
- Type: binding
- STATED_CONDITIONS: confirmation assay, triplicate, single concentration 26.1 μM; read-out: FBW7 ACT CRUN1 Avg % Response and Stdev
PROPERTY: activation at 26.1 µM (%)

1. O=C(Nc1ccc2c(c1)OCO2)N1CCC(c2nnc(C3CC3)s2)CC1 : 2.33
2. CCSCCOC(=O)C1=C(C)NC2=C(C(=O)CCC2)C1c1ccc(Br)cc1 (stereo not drawn) : 5.2
3. C/C(=N\Nc1cccc(C(F)(F)F)c1)C1CC1 : 10.7

----------
- TESTED_SYSTEM: FBW7^ARG+pCycE (Homo sapiens, UniProt Q969H0, R505L)
- Construct: GST (TEV site and flexible linker) (N, cleaved yes); made in house; host or cells: SF9 insect cells (baculovirus)
- ASSAY_COMMENT: FBW7^ARG-cyclin E agonist ALPHAscreen (primary PRUN, confirmation CRUN1, dose-response DRUN)
- Type: binding
- STATED_CONDITIONS: confirmation assay, triplicate, single concentration 26.1 μM; read-out: FBW7 ACT CRUN1 Avg % Response and Stdev
PROPERTY: activation at 26.1 µM (%)

1. CCN(Cc1ccccc1)C(=O)c1cc2c(=O)n3cccc(C)c3nc2n1C : 2.95
2. O=C(c1ccco1)N1CCN(c2ncc(-c3ccccc3CO)n3ccnc23)CC1 : 1.92
3. CCOC(=O)C1CCN(C(=O)Nc2ccc(NC(=O)C3CCN(C(=O)OCC)CC3)cc2)CC1 : 5.81
4. Cc1nc(C(C)NC(=O)c2cc(COc3ccc(F)cc3F)on2)cs1 (centres unmarked) : 1.88
5. CCC(c1nnnn1CCC(C)C)N1CCN(C(=O)c2ccco2)CC1 (centres unmarked) : 2.97
6. O=C(Cc1ccc(Br)cc1)N1CCC(c2nc(O)c3cnccc3n2)C1.O=C(O)C(F)(F)F (centres unmarked) : 4.65
7. COc1ccccc1-c1ccc(N2CCN(C(=O)COc3ccccc3)CC2)nn1 : 5.69
8. Cc1cccc(NC(=O)N2CCC(c3nnc(C4CC4)s3)CC2)c1 : 4.96
9. Cc1ccc2nc(SCC(=O)Nc3ncc(C)s3)c(C#N)cc2c1 : 3.87
10. Cc1ccnc(N2CCC(C(=O)Nc3ccccc3Br)CC2)n1 : 3.43
11. CCCOc1ccc(C2C(C(=O)OC)=CN(CCOC)C=C2C(=O)OC)cc1 : 2.9
12. CC(NC(=O)c1cnc2ccccn12)c1ccc(F)cc1 (centres unmarked) : 3.47
13. COc1ccc(OC)c(/C=C2/N=C(c3cccc([N+](=O)[O-])c3)OC2=O)c1 : 2.95
14. CCSc1nnc(C2CCN(CC(=O)Nc3cccc4ccccc34)CC2)n1C : 7.92
15. COc1ccccc1-c1ccc(=O)n(CC(=O)Nc2ccc(C(=O)N3CCCC3)cc2)n1 : 4.43
16. COc1ccccc1C1C(C(=O)OC2CCCC2)=C(C)NC2=C1C(=O)CC(c1ccccc1)C2 (centres unmarked) : 5.59
17. CCOc1ccc(Br)cc1C1C2=C(CCCC2=O)N(CC(=O)O)C2=C1C(=O)CCC2 : 3.84

----------
In this section we review reported activation at 26.1 µM values for a set of compounds.
- TESTED_SYSTEM: FBW7^ARG+pCycE (Homo sapiens, UniProt Q969H0, R505L)
- Construct: GST (TEV site and flexible linker) (N, cleaved yes); made in house; host or cells: SF9 insect cells (baculovirus)
- ASSAY_COMMENT: FBW7^ARG-cyclin E agonist ALPHAscreen (primary PRUN, confirmation CRUN1, dose-response DRUN)
- Type: binding
- STATED_CONDITIONS: primary screen, 1536-well, 26.1 μM, FBW7^ARG + pCycE degron peptide; high control wt-FBW7+pCycE; read-out: FBW7 ACT PRUN % Response
PROPERTY: activation at 26.1 µM (%)

1. CCc1ccc(N2CC(C(=O)NCC(C)(C)CNC(=O)C3CC(=O)N(c4ccc(CC)cc4)C3)CC2=O)cc1 (stereo not drawn) [SR-01000537224-1] : 4.51
2. COc1ccc(COC(=O)C2=C(C)NC3=C(C(=O)CC(C)(C)C3)C2c2ccccc2)cc1 (stereo not drawn) [SR-01000427708-1] : 2.58
3. COc1cc2c(cc1OC)C(COc1ccc([N+](=O)[O-])cc1)N(C(=O)c1ccc3c(c1)OCO3)CC2 (stereo not drawn) [SR-01000568734-1] : 2.1
4. CCCOc1ccc(C2C(C(=O)OC)=CN(CCOC)C=C2C(=O)OC)cc1 [SR-01000259436-1] : 2.13
5. CC(=O)Nc1ccc(NC(=O)Cn2cnc3c(cnn3C(C)(C)C)c2=O)cc1 [SR-01000137195-1] : 4.02
6. COc1cc(-c2ccnc(N)n2)ccc1NC(=O)[C@H]1COc2ccccc2O1.O=C(O)C(F)(F)F [SR-00000003239-1] : 2.52

----------
- TESTED_SYSTEM: FBW7^ARG (RLFBW7) alone (Homo sapiens, UniProt Q969H0, R505L)
- Construct: GST (TEV site and flexible linker) (N, cleaved yes); made in house; host or cells: SF9 insect cells (baculovirus)
- ASSAY_COMMENT: Counterscreen 1 ALPHAscreen with FBW7^ARG alone (CSRUN1/DCSRUN1)
- Assay type: binding
- STATED_CONDITIONS: dose-response counterscreen, raw curve fit, read-out: RLFBW7 ACT DCSRUN1 EC50 Curve Fit Raw
PROPERTY: EC50 (µM)

1. COc1ccccc1C1C(C(=O)OC2CCCC2)=C(C)NC2=C1C(=O)CC(c1ccccc1)C2 (centres unmarked) : 16.4
2. CC1=C(C(=O)OC(C)C)C(c2ccncc2)C2=C(CC(c3ccccc3)CC2=O)N1 (centres unmarked) : 25.2
3. CCC(c1nnnn1CCC(C)C)N1CCN(C(=O)c2ccco2)CC1 (centres unmarked) : 2.3
4. COc1cc(-c2ccnc(N)n2)ccc1NC(=O)[C@H]1COc2ccccc2O1.O=C(O)C(F)(F)F : 12.8
5. CCS(=O)(=O)NCC(c1cccs1)S(=O)(=O)c1ccc(C)cc1 (centres unmarked) : 0.0177
6. O=c1c2cnn(-c3ccccc3)c2nnn1Cc1cccnc1 : 11.9
7. CCC(C)OC(=O)C1=C(C)NC2=C(C(=O)CC(c3ccc(Cl)cc3)C2)C1c1cccc(Cl)c1 (centres unmarked) : 24.1
8. CCOc1ccc(Br)cc1C1C2=C(CCCC2=O)N(CC(=O)O)C2=C1C(=O)CCC2 : 0.0052

----------
- TESTED_SYSTEM: FBW7^ARG (RLFBW7) alone (Homo sapiens, UniProt Q969H0, R505L)
- Construct: GST (TEV site and flexible linker) (N, cleaved yes); made in house; host or cells: SF9 insect cells (baculovirus)
- ASSAY_COMMENT: Counterscreen 1 ALPHAscreen with FBW7^ARG alone (CSRUN1/DCSRUN1)
- Format: binding
- STATED_CONDITIONS: dose-response counterscreen, read-out: RLFBW7 ACT DCSRUN1 Averaged Max % Response
PROPERTY: Emax (%)

1. O=C(NCCCN1CCc2ccccc2C1)Nc1ccc(Br)cc1 : -0.0757
2. CCC(c1nnnn1CCC(C)C)N1CCN(C(=O)c2ccco2)CC1 (centres unmarked) : 0.87
3. CCc1ccc(N2CC(C(=O)NCC(C)(C)CNC(=O)C3CC(=O)N(c4ccc(CC)cc4)C3)CC2=O)cc1 (centres unmarked) : 2.4
4. COc1ccc(SCC(=O)NNC(=S)Nc2ccccc2)cc1 : 2.56
5. O=C(c1ccco1)N1CCN(c2ncc(-c3ccccc3CO)n3ccnc23)CC1 : 0.83
6. CCN(Cc1ccccc1)C(=O)c1cc2c(=O)n3cccc(C)c3nc2n1C : 1.56
7. Cc1cccc(NC(=O)N2CCC(c3nnc(C4CC4)s3)CC2)c1 : 0.09
8. COCCOC(=O)C1=C(C)NC2=C(C(=O)CC(c3ccccc3)C2)C1c1ccc(OCc2ccccc2)cc1 (centres unmarked) : 3
